Measured MIC by item
Assay summary: Inhibition of metallo-beta-lactamase L1 (unknown origin) overexpressed in Escherichia coli BL21(DE3) assessed as restoration of cefazolin antibacterial activity by measuring cefazolin MIC at 16 ug/ml measured after 12 hrs by macrodilution broth method (reference value: 16 ug/ml)
Experimental endpoint: MIC

1. CCCCCC(=O)N[C@@H](Cc1ccccc1)C(=O)SCC(=O)O
2 µg/mL
2. O=C(O)CSC(=O)c1ccc(NC(=O)OCc2ccccc2)cc1
16 µg/mL
3. CCCCCC(=O)N[C@@H](Cc1c[nH]c2ccccc12)C(=O)SCC(=O)O
4 µg/mL
4. O=C(O)CSC(=O)[C@H](Cc1c[nH]c2ccccc12)NC(=O)Cc1ccccc1
4 µg/mL
5. CSCC[C@H](NC(=O)Cc1ccc(-c2ccccc2)cc1)C(=O)SCC(=O)O
4 µg/mL
6. O=C(O)CSC(=O)[C@H](Cc1ccccc1)NC(=O)Cc1ccc(-c2ccccc2)cc1
2 µg/mL
7. O=C(O)CSC(=O)[C@H](Cc1c[nH]c2ccccc12)NC(=O)Cc1ccc(-c2ccccc2)cc1
4 µg/mL
8. O=C(O)CSC(=O)[C@H](Cc1ccccc1)NC(=O)Cc1ccccc1
2 µg/mL
9. CSCC[C@H](NC(=O)Cc1ccccc1)C(=O)SCC(=O)O
4 µg/mL
10. CSCC[C@H](NC(=O)c1ccccc1)C(=O)SCC(=O)O
4 µg/mL
